# Study system: T1, hSEMA4D ECD-His (His-tagged human SEMA4D protein extracellular domain, Met22-Arg734) (human, UniProt Q92854 22-734)
# T1 construct: Expressed in CHO-S cells, purified on Ni column; also called protein immunogen; immunogen A; not shown: His tag of the pCP vector
# T1 sequence: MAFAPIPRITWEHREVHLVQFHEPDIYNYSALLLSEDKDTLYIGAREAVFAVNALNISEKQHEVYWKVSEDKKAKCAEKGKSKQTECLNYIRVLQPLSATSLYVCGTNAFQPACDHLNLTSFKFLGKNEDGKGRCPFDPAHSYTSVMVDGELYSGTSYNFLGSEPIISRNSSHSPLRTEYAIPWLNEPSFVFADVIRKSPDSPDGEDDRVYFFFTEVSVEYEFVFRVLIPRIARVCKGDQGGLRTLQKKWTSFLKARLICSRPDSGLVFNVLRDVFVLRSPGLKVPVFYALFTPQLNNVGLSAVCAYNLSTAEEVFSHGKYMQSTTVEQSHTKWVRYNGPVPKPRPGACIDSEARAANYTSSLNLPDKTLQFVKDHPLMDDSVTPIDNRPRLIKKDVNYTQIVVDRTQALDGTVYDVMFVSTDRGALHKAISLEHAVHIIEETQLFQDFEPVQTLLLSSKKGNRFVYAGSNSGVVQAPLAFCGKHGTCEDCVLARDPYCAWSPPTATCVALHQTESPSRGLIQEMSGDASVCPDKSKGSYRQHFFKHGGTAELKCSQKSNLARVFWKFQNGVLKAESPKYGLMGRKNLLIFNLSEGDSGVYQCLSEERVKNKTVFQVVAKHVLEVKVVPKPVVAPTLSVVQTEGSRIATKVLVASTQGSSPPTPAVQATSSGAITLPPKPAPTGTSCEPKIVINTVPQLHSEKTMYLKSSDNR
# Procedure text: ELISA, coated hSEMA4D ECD-His; Ab 0.000085 nM
Examples of binders with documented OD450 nm follow.
Give the figure only, with no unit attached.

Known results for binders:
31C11G2 (antibody, V domains shown, Mouse monoclonal antibody purified from hybridoma supernatant on protein A) VH: EVQLQQSGAELVRPGASVKLSCTASGFNIKDEYIHWVKQRPEQGLEWIGWIDPANGHTEYASRFQAKATITADTSSNTAYLQLSSLTSEDTAVYYCTTGDYDGFVYWGQGTLVTVST VL: QIVLTQSPAIMSASPGEKVTIFCSARSSVSYMYWYQQKPGSSPKPWIYRTSNLASGVPARFSGSGSGTSYSLTISSMEAEDAATYYCQHYHTYPYTFGGGTKLEIK = 0.0753
32C8F10 (antibody, V domains shown, Mouse monoclonal antibody purified from hybridoma supernatant on protein A) VH: EVQLQQSGAELVRPGASVKLSCTASGFNIKDEYIHWVKQRPEQGLEWIGWIDPANGHTEYASRFQAKATITADTSSNTAYLQLSSLTSEDTAVYYCTTGDYDGFAYWGQGTLVTVST VL: QIVLTQSPAIMSASPGEKVTISCSARSSVSYMYWYQQKPGSSPKPWIYRTSNLASGVPARFSGSGSGTSYSLTISSMEAEDAATYYCQHYHTYPYTFGGGTKLEIK = 0.0699

Consider the additional binder presented here.
Which value of OD450 nm has been reported for 31G10C5 (antibody, V domains shown, Mouse monoclonal antibody purified from hybridoma supernatant on protein A) VH: EVQLQQSGAELVRPGASVKLSCTASGFNIKDDYIHWVKQRPEQGLEWIGWIDPANGHIEYASNFQAKATITADTSSNTAYLQLSSLTSEDTAVYYCTTGDYDGFTYWGQGTLVTVST VL: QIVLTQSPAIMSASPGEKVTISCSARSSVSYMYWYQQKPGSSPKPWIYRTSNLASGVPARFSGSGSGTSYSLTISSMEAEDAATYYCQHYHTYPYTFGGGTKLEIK in the records?
0.0694
